Target: Receptor tyrosine-protein kinase erbB-2 (Homo sapiens)
Test: reducers of endogenous Her2 protein level, primary screen, SKBR3 breast tumor cells, AlphaScreen, ATP viability (AID 461);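 also: lower value means less Her2 protein in the cells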
Conditions: 18-24 h, at 10 µM, active compounds read low
measure.name: Her2 level (%)
State the answer as a number, implicitly in %.

Fc1ccc(C2C3=C(Nc4ncnn42)c2ccccc2OC3c2ccncc2)cc1 (stereo unspecified) ... 85.5

Please report the recorded Her2 level for Cc1ccnc(NS(=O)(=O)c2ccc(NC(=O)Cc3cccs3)cc2)n1 . 111

Suppose we examine the compound COc1cc2c(cc1OC)C(c1ccccc1O)N(C1CC(=O)N(c3ccccc3)C1=O)CC2 (stereo unspecified) ; what Her2 level value has been reported? 96.5

Name the recorded Her2 level for Cc1[nH]c2ccccc2c1Cc1nnc(SCC(=O)NCc2ccco2)o1 . 93

Which Her2 level is listed for CC(NC(=O)c1ccco1)c1ccc2c(c1)OCCO2 (stereo unspecified) ? 95.5

Entry CCOc1ccc2nc(NC(=O)C(NS(=O)(=O)c3cccs3)C(C)C)sc2c1 (stereo unspecified) has what Her2 level? 68.5

What Her2 level value was documented for this compound, CC(C)(C)c1nc(CN2CCOCC2)ccc1O ? 96.5

Her2 level for CCCCCC1CC(CC#CCN2CCOCC2)C(=O)O1 (stereo unspecified) ? 102

What does the record list as Her2 level for Cc1cccc2cc(CN(Cc3nnnn3C3CCCC3)C3CCCCC3)c(=O)[nH]c12 ? 109

Param item = COc1ccc(-c2cn3cc(C)ccc3n2)cc1OC ; retrieve measured Her2 level. 88

# query: Her2 level of entry O=C(CSc1nnc(-c2cnccn2)n1Cc1ccco1)c1ccc(Cl)cc1 81
